experimentalDetails: MELAS cybrid and Rieske KO viability enhancers – cell-based, MELAS cybrids, Rieske KO mouse fibroblasts, CellTiter-Glo, primary screen (AID 1508586);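 note: z relative to plate mean and SD of compound and empty wells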
setupConditions: Rieske KO mouse fibroblast survival, low glucose, CellTiter-Glo 72 h
reportedEndpoint: z-score

>>> observedvalue("O=c1c(O)c(-c2cc(O)c(O)c(O)c2)oc2cc(O)cc(O)c12")
0.188
>>> observedvalue("O=c1c2ccccc2nc2n1CCc1c-2[nH]c2ccccc12")
0.166
>>> observedvalue("Cn1cc(-c2ccc3nnc(C(F)(F)c4ccc5ncccc5c4)n3n2)cn1")
0.567
>>> observedvalue("COc1ccc2cc(-c3nc(-c4ccc(S(C)=O)cc4)[nH]c3-c3ccncc3)ccc2c1 (stereo not given)")
0.971
>>> observedvalue("CCN(C(=O)c1c(O)c2c(Cl)cccc2n(C)c1=O)c1ccccc1")
0.483
>>> observedvalue("COCCOc1nc(-c2ccc(Cl)c(Cl)c2)n(-c2ccc(NC(=O)CCl)cc2)n1")
-7.88
>>> observedvalue("COc1cc(N2CCC(N)CC2)ccc1Nc1ncc(Cl)c(-c2c[nH]c3ccccc23)n1")
-0.504
>>> observedvalue("Cc1ccc(C(=O)Nc2ccc(CN3CCN(C)CC3)c(C(F)(F)F)c2)cc1C#Cc1cnc2cccnn12")
-2.78
>>> observedvalue("NC(=NCCCCCCN=C(N)N=C(N)Nc1ccc(Cl)cc1)N=C(N)Nc1ccc(Cl)cc1")
0.00983
>>> observedvalue("O=C(Nc1c(Cl)cncc1Cl)c1ccc(OC(F)F)c(OCC2CC2)c1")
-1.74

----------
experimentalDetails: viability loss in pontine glioma line – cell-based, SU-DIPG-XVII, MIPE5.0, CellTiter-Glo, qHTS, dose response (AID 1347060);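 for AC50: cells exposed to compound for 48 hours before viability readout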
setupConditions: CellTiter-Glo ATP luminescence
Inconclusive results are not listed. Calls of active or inactive are those of the source. Cut-off not given; nearly all actives show AC50 up to about 26 µM.
Outcome codes: true = active, false = inactive

>>> labelvalue("CCCCNc1ncc(-c2ccc(CN3CCOCC3)cn2)c(NC2CCC(O)CC2)n1 (stereo unspecified)")
"true"
>>> labelvalue("CC(=O)O/N=C1/C(c2c(O)[nH]c3cc(Br)ccc23)=Nc2ccccc21")
"true"
>>> labelvalue("CC(C)=CC[C@@H](O)C1=CC(=O)c2c(O)ccc(O)c2C1=O")
"true"
>>> labelvalue("COc1ccc(S(=O)(=O)Nc2cccnc2Nc2ccc(O)cc2)cc1")
"true"
>>> labelvalue("NS(=O)(=O)NCCNc1nonc1C(=Nc1ccc(F)c(Br)c1)NO")
"false"
>>> labelvalue("CNc1nccc(-c2cccnc2Oc2cc(C(=O)Nc3cccc(C(F)(F)F)c3)ccc2C)n1")
"true"
>>> labelvalue("COc1ccc(CNc2nc(N(CCO)CCO)nc3c2ncn3C(C)C)cc1")
"true"
>>> labelvalue("CN1C(=O)[C@@H](NC(=O)c2cc(Cc3ccccc3)on2)COc2ccccc21")
"false"
>>> labelvalue("NC(=O)c1cccc2cn(-c3ccc([C@@H]4CCCNC4)cc3)nc12")
"true"
>>> labelvalue("COc1ccc(Nc2cc(-c3cnc(N)nc3)nc(N3CCOCC3)n2)cn1")
"true"
>>> labelvalue("CNC(=O)[C@H](Cc1c[nH]c2ccccc12)NC(=O)[C@@H](CC(=O)NO)CC(C)C")
"false"
>>> labelvalue("Cc1ccc(C(=O)Nc2cccc(C(F)(F)F)c2)cc1-c1ccc2nc(NCCN3CCOCC3)ncc2c1")
"true"
>>> labelvalue("O=C(Nc1cnn2ccc(N3CCC[C@@H]3c3cc(F)ccc3F)nc12)N1CC[C@H](O)C1")
"false"
>>> labelvalue("COc1cc2c(Oc3ccc(-c4cnc(Nc5ccc(F)cc5)n(C)c4=O)cc3F)ccnc2cc1OCCCN1CCOCC1")
"true"
>>> labelvalue("N#Cc1cc2cc(CN3CCC(Nc4ncnc5sc(CC(F)(F)F)cc45)CC3)c(O)cc2n1Cc1cn[nH]c1")
"true"
>>> labelvalue("COc1cc(N2CCC(N(C)C)CC2)ccc1Nc1ncc(Cl)c(Nc2ccccc2P(C)(C)=O)n1")
"true"
>>> labelvalue("COC(=O)C1=C(C)NC(c2ncc(F)cc2F)=N[C@@H]1c1ccc(F)cc1Cl")
"false"
>>> labelvalue("N#CC1(c2ccc(NC(=O)c3cccnc3NCc3ccncc3)cc2)CCCC1")
"false"
>>> labelvalue("NS(=O)(=O)c1ccc(NC(=S)N2CCN(C/C=C/c3ccccc3)CC2)cc1")
"false"
>>> labelvalue("Cc1nc(NC(=O)N2CCCC2C(N)=O)sc1-c1ccnc(C(C)(C)C(F)(F)F)c1 (stereo unspecified)")
"true"
>>> labelvalue("Fc1ccc(-c2nc(-c3ccccc3F)[nH]c2-c2ccncc2)cc1")
"false"
>>> labelvalue("CC(C)Oc1ccc(C(=O)N[C@H](CNC(=O)CN(C)C)Cc2ccc(-c3cn4cccc([C@H](C)O)c4n3)cc2)cc1Cl")
"true"
>>> labelvalue("Cn1c(CNc2ccc(C(=N)N)cc2)nc2cc(C(=O)N(CCC(=O)O)c3ccccn3)ccc21")
"false"
>>> labelvalue("CCCC1OC2C[C@H]3[C@@H]4CCC5=CC(=O)C=C[C@]5(C)[C@H]4C(O)C[C@]3(C)[C@]2(C(=O)CO)O1 (stereo partly specified)")
"false"
>>> labelvalue("CO[C@H]1C[C@@H]2CC[C@@H](C)[C@@](O)(O2)C(=O)C(=O)N2CCCC[C@H]2C(=O)O[C@H]([C@H](C)C[C@@H]2CC[C@@H](OC(=O)C(C)(CO)CO)[C@H](OC)C2)CC(=O)[C@H](C)/C=C(\\C)[C@@H](O)[C@@H](OC)C(=O)[C@H](C)C[C@H](C)/C=C/C=C/C=C/1C")
"true"
>>> labelvalue("Clc1ccc(C2(c3ccc(-c4cn[nH]c4)cc3)CCNCC2)cc1")
"true"
>>> labelvalue("Cc1ccc(-c2ncn(-c3ccc(Nc4nccc(-c5cccc(N6CCOCC6)c5)n4)cc3)n2)cn1")
"true"
>>> labelvalue("Cc1cccc(-c2[nH]ncc2-c2ccc(F)c(-c3cnn(CCO)c3)c2)n1")
"false"
>>> labelvalue("COc1ccc(-c2cc3nccn3c(Nc3ncccc3C(N)=O)n2)cc1OC")
"true"
>>> labelvalue("CC(C)(C)c1cnc(CSc2cnc(NC(=O)C3CCNCC3)s2)o1")
"true"
>>> labelvalue("COc1cc2c(cc1OC)CN(CCc1ccc(NC(=O)c3cccc4c(=O)c5cccc(OC)c5[nH]c34)cc1)CC2")
"false"
>>> labelvalue("Cc1ccc(C(=O)OCc2ccc([C@@H](CN)C(=O)Nc3ccc4cnccc4c3)cc2)c(C)c1")
"true"
>>> labelvalue("O=C(O)CNC(=O)c1ncc(-c2cccc(Cl)c2)cc1O")
"false"
>>> labelvalue("CCc1cnn2c(NCc3ccc[n+]([O-])c3)cc(N3CCCC[C@H]3CCO)nc12")
"true"
>>> labelvalue("CCCNC(=O)[C@H]1O[C@@H]1C(=O)N[C@H](C(=O)N1CCC[C@H]1C(=O)OC)C(C)CC (stereo partly specified)")
"true"
>>> labelvalue("N[C@@H]1CN(c2c(F)cc3c(=O)c(C(=O)O)cn([C@@H]4C[C@@H]4F)c3c2Cl)CC12CC2")
"false"

----------
experimentalDetails: viability loss with induced miR-34 in A549 – imaging, A549 dox-inducible miR-34, nuclei and caspase counts, primary screen (AID 1347080)
setupConditions: A549 miR-34 inducible, Hoechst nuclei count, 48 h; measured here: relative caspase fold change +Dox/-Dox
Below is a list of entries, each paired with its recorded fold change value.
reportedEndpoint: fold change

>>> observedvalue("CC1(C)CC(=O)c2c(C(F)(F)F)nn(-c3ccc(C(N)=O)c(NC4CCC(O)CC4)c3)c2C1 (stereo unspecified)")
0.783
>>> observedvalue("CCCCC[C@H](O)/C=C/[C@H]1CC[C@@H](O)[C@@H]1C/C=C\\CCCC(=O)O")
1.34
>>> observedvalue("NC(=O)N1c2ccccc2CC(O)c2ccccc21 (stereo unspecified)")
0.846
>>> observedvalue("CCCCCC(=O)/C=C/C=O")
1.61
>>> observedvalue("CCC(=O)OCN1C(=O)C=CC1=O")
1.17
>>> observedvalue("COc1cc2ncnc(Nc3ccc(O)c(Br)c3)c2cc1OC")
0.931

----------
experimentalDetails: growth inhibition of DIPG cells – cell-based, MIPE5.0 library, qHTS (AID 1347068);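 for IC50: cells exposed to compound for 48 hours before viability readout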
setupConditions: SU-DIPG-XXV viability
Records with an inconclusive call do not appear. The source made the active and inactive calls. Cut-off not given; nearly all actives show IC50 up to about 30 µM.
Labels: true = active, false = inactive

>>> labelvalue("C=CCNC1=C2CC(C)CC(OC)C(O)C(C)/C=C(\\C)C(OC(N)=O)C(OC)/C=C/C=C(\\C)C(=O)NC(=CC1=O)C2=O (stereo not drawn)")
"true"
>>> labelvalue("CN1CCN(C2CCN(C(=O)Nc3cc(Oc4ccc(NC(=O)C5(C(=O)Nc6ccc(F)cc6)CC5)c(F)c4)ccn3)CC2)CC1")
"true"
>>> labelvalue("Cc1ccc(NC(=O)Nc2cc(C(F)(F)F)ccc2F)cc1Nc1ccc2c(c1)NC(=O)/C2=C\\c1ccc[nH]1")
"true"
>>> labelvalue("C[C@@H]1CN(CC(=O)N2CC(C)(C)c3ncc(Cc4ccc(F)cc4)cc32)[C@@H](CN2CCOC[C@H]2C)CN1")
"false"
>>> labelvalue("Cc1[nH]nc2ncc(C(=O)N3CCC[C@H]3c3ccc(Cl)cc3)cc12")
"false"
>>> labelvalue("CC(C)(NS(=O)(=O)c1ccc2c(Cl)cnc(N=C(N)N)c2c1)C(=O)O")
"false"
>>> labelvalue("CC(C)c1cc(C(=O)N2Cc3ccc(CN4CCN(C)CC4)cc3C2)c(O)cc1O")
"true"
>>> labelvalue("CCC(CC)C(c1ccc(Nc2nc3ccccc3s2)cc1)n1cncn1 (stereo not drawn)")
"true"
>>> labelvalue("NC(=O)c1cccc2[nH]c(-c3ccc([C@H]4CCCN4)cc3F)nc12")
"false"
>>> labelvalue("Cc1cccc(Oc2cnc(=O)[nH]c2)c1")
"false"
>>> labelvalue("O=C1OC(COc2ccccc2[N+](=O)[O-])CC1Cc1ccccc1 (stereo not drawn)")
"false"
>>> labelvalue("CCOC(=O)[C@@H](N)CCC(=O)N[C@@H](CSCc1ccccc1)C(=O)N[C@@H](C(=O)OCC)c1ccccc1")
"false"
>>> labelvalue("FC(F)(F)c1ccc(CNc2ccc(Cc3c[nH]c4ncc(Cl)cc34)cn2)cn1")
"false"
>>> labelvalue("CS(=O)(=O)c1ccc(-c2nnc(/C=C/c3nnc(-c4ccc(C#N)cc4)o3)n2-c2ccccc2Cl)nc1")
"false"
>>> labelvalue("CC1(C)C(N(O)C(=O)Nc2ccc(Cl)cc2)N(c2ccc(Cl)cc2)C(=O)N1CC(=O)N/N=C/C=C/c1ccc([N+](=O)[O-])o1 (stereo not drawn)")
"true"
>>> labelvalue("Nc1nccc2c1ncn2[C@@H]1C=C(CO)[C@@H](O)[C@H]1O")
"false"
>>> labelvalue("CC[C@H](Nc1ncnc2nc[nH]c12)c1oc2ccccc2c(=O)c1-c1cccc(F)c1")
"false"
>>> labelvalue("CS(=O)(=O)Oc1ccc2c(NC(N)=O)c(C(=O)c3ccc(Cl)cc3Cl)oc2c1")
"false"
